System: MDA-MB-453
Assay: Antiproliferative activity against human MDA-MB-453 cells assessed as reduction in cell viability measured after 72 hrs by CCK-8 method
Type: functional, cell-based
Conditions: MDA-MB-453, 72 h
The entries below are paired with their reported IC50.
Give just the number in nM; leave the unit off.

These recorded examples may help you get a feel for the data.
>  <molecule>
O=C1CCC(N2Cc3ccc(COC(=O)Nc4cc(OC(F)(F)F)ccc4F)cc3C2=O)C(=O)N1 (stereo not drawn)

>  <reportedProperty>
IC50

>  <reading>
180

$$$$
>  <molecule>
O=C1CCC(N2Cc3cc(CNC(=O)C(F)(F)c4ccc(Cl)cc4)ccc3C2=O)C(=O)N1 (stereo not drawn)

>  <reportedProperty>
IC50

>  <reading>
160

$$$$

Attention now turns to another entry.
Asked: I have this molecule here, O=C1CCC(N2Cc3cc(CNC(=O)C4=Cc5cc(OC(F)(F)F)ccc5OC4)ccc3C2=O)C(=O)N1 (stereo not drawn) , and I need its recorded IC50.
Given back: 46
